- protocol-details: anti-His antibody binders, primary screen, artefact control for SMM control protein annotation, biochemical, small-molecule microarray, 635 nm fluorescence (AID 1128);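 further: score merges feature fluorescence with signal-to-noise for each printed compound spot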
- condition-set: anti-His Alexa647 antibody binding, higher = more signal
Class MET: composite z-score at least 2. Class NOT MET: composite z-score below 2.

- compound: "C=C(CCCC)/C(=C/C[C@H](OC(=O)c1ccncc1)c1ccccc1OCCO)c1cnc2ccccc2c1"
  category-label: "NOT MET"
- compound: "O=C1C[C@@](C(=O)NCCN2CCOCC2)(c2ccc([N+](=O)[O-])cc2)[C@@H](c2ccc(CO)cc2I)N1CC12CC3CC(CC(C3)C1)C2"
  category-label: "NOT MET"
- compound: "COC(=O)[C@@]1(Cc2ccc(F)cc2)[C@H]2c3cc(C(=O)N4CCCC4)n(Cc4ccc(S(C)(=O)=O)cc4)c3C[C@H]2CN1C(=O)c1ccccc1"
  category-label: "NOT MET"
- compound: "CC(C)C(=C=CC[C@@H](O)c1ccc(OCCO)cc1)C[C@@H](O)COCc1ccccc1"
  category-label: "NOT MET"
- compound: "COC(=O)[C@@]1(Cc2ccc(OC)cc2)[C@H]2c3cc(C(=O)N(C)C)n(Cc4ccc(S(C)(=O)=O)cc4)c3C[C@H]2CN1C(=O)c1ccccc1"
  category-label: "NOT MET"

Request: Could you verify whether the entry COC(=O)[C@H](Cc1ccccc1)N1CC2=C[C@@H](C3CC3)n3c(=O)n(C)c(=O)n3[C@H]2[C@@H]1[C@@H](O)Cc1ccccc1 shows composite z-score of no less than 2?
Result: NOT MET

Request: Now this one: COC(=O)[C@@]1(Cc2ccc(OC)cc2)[C@H]2c3cc(C(=O)N(C)C)n(CCc4ccccn4)c3C[C@H]2CN1C(=O)c1ccccc1
Result: NOT MET

Request: Now this one: C=C[C@@H](COC(=O)OC(C)(C)C)N(Cc1ccc(OC)cc1)S(=O)(=O)c1ccc(Br)cc1
Result: NOT MET

Request: Now this one: CN(C)CCCCCCNC(=O)[C@H]1C[C@H]2C(=O)N3CCC[C@H]3C(=O)N2[C@H]1c1ccc(O)cc1
Result: MET

Request: Now this one: C=C(C)[C@@H]1CC=C(C(O)C2C=CC3C(=O)N(c4ccccc4)C(=O)C3N2Nc2ccccc2)CC1 (stereo not given in full)
Result: NOT MET

Request: Now this one: C=CCN1C(=O)[C@]2(O[C@H](CCn3cc([C@H](O)c4ccccc4)nn3)[C@@H]([Si](C)(C)c3ccc(OC)cc3)[C@@H]2C)c2ccccc21
Result: NOT MET

Request: Now this one: C=CCOC(=O)[C@H]1[C@@H]2C(=O)O[C@@H](c3ccccc3)[C@@H](c3ccccc3)N2[C@@H](c2ccc(OCCOC(=O)[C@H]3C[C@H]4C(=O)N[C@@H](CCCCNC(C)=O)C(=O)N4[C@H]3c3ccc(O)cc3)cc2)[C@]12C(=O)Nc1ccc(I)cc12
Result: NOT MET

* * *

Listed next: entries and their corresponding z-score.
- protocol-details: E. coli acrAB mutant growth effects, primary screen, E. coli filamentation inducers, strain DRC39, OD650, 24 h (AID 1178);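 further: growth measured as culture turbidity by optical density at 650 nm; test concentration not given here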
- condition-set: higher = more signal, called active from +8 up or from −8 down
Lab note: jot the number down without any unit.

- compound: "CN(C)CCCCCCNC(=O)[C@@H]1C[C@@H]2C(=O)N[C@@H](Cc3ccccc3)C(=O)N2[C@@H]1c1ccc(O)cc1"
  measured-number: -0.725
- compound: "C=CCN1C(=O)[C@@]2(CC=C)N=C(c3ccc(OCCCO)cc3)O[C@H]2c2ccccc21"
  measured-number: 1.19
- compound: "C=CCOC(=O)[C@H]1[C@@H]2C(=O)O[C@@H](c3ccccc3)[C@@H](c3ccccc3)N2[C@@H](c2ccc(OCCOC(=O)[C@@H]3C[C@@H]4C(=O)N[C@@H](CC(C)C)C(=O)N4[C@@H]3c3ccc(O)cc3)cc2)[C@]12C(=O)Nc1ccccc12"
  measured-number: -0.149
- compound: "C=C(/C(=C/C[C@H](OC(C)=O)c1ccc(CO)o1)c1cc(C(=O)OC)ccc1OC)C(C)C"
  measured-number: -1.42
- compound: "CN1C(=O)C2C=CC(C(O)C#Cc3ccccc3)N(N3CCCCC3)C2C1=O (stereo not drawn)"
  measured-number: -0.276
- compound: "Cc1ccc(S[C@]2(C(=O)O)CC(=O)N(C(C)C)[C@@H]2c2ccc(CO)cc2I)cc1"
  measured-number: 0.818
- compound: "C[N+](C)(C)CCCCNC(=O)[C@@H]1C[C@@H]2C(=O)N[C@@H](Cc3ccccc3)C(=O)N2[C@@H]1c1cccc(OCCO)c1"
  measured-number: 0.994
- compound: "COc1ccc([Si](C)(C)[C@@H]2[C@@H](CCO)O[C@]3(C(=O)N(Cc4ccc(N(C=O)c5ccccc5)cc4)c4ccccc43)[C@H]2C)cc1"
  measured-number: 0.544
- compound: "CC(C)=CCCC(C)=CC(O)C1C=CC2C(=O)N(C)C(=O)C2N1Nc1ccccc1 (stereo not drawn)"
  measured-number: -0.261
- compound: "CO[C@H]1O[C@H](CO)[C@@H](OC(=O)Nc2ccc(C(F)(F)F)cc2)[C@H](OC(=O)Nc2ccc3c(c2)OCO3)[C@@H]1OC(=O)Nc1ccc2c(c1)OCO2"
  measured-number: 1.53

Shift focus to the following entry.
Request: Look up z-score for this compound: COc1cc2c(cc1O)C(c1cccs1)N(C)CC2 (stereo not drawn)
Result: 0.34
